test system: Staphylococcus aureus; experiment: Antibacterial activity against Staphylococcus aureus NCIM 2079 assessed as zone of inhibition at 1 ug/ml after 24 hrs by agar diffusion method; format: functional; details: NCIM 2079, 24 h, read-out: IZ
# Lookup of reported zone of inhibition at 1 µg/mL keyed by entry

{"columns": ["compound", "measured-value"],
 "data": [
  ["COC(=O)c1cc(-c2cc3ccccc3o2)n(C(N)=O)n1", "9 to 30 mm"]
]}

Task item: I have this compound here, CCOC(=O)c1cc(-c2cc3ccccc3o2)on1 , and I need its recorded zone of inhibition at 1 µg/mL.
Reply: 9 to 30 mm

Task item: I have this compound here, COC(=O)c1cc(-c2oc3ccc(Cl)cc3c2C)n(-c2ccccc2)n1 , and I need its recorded zone of inhibition at 1 µg/mL.
Reply: 9 to 30 mm

Task item: I have this compound here, COC(=O)c1cc(-c2cc3ccccc3o2)n(-c2ccccc2)n1 , and I need its recorded zone of inhibition at 1 µg/mL.
Reply: 9 to 30 mm

Task item: I have this compound here, CCOC(=O)c1cc(-c2oc3c(Cl)cc(Cl)cc3c2C)on1 , and I need its recorded zone of inhibition at 1 µg/mL.
Reply: 9 to 30 mm

Task item: I have this compound here, O=C(N[C@H](CO)[C@H](O)c1ccc([N+](=O)[O-])cc1)C(Cl)Cl [CHLORAMPHENICOL] , and I need its recorded zone of inhibition at 1 µg/mL.
Reply: 21 to 32 mm
